TGT: BCR-KIT BaF3 cells (Homo sapiens)
Construct: fused on or other part: P11274 (Breakpoint cluster region protein)
Sequence (P10721 589-937): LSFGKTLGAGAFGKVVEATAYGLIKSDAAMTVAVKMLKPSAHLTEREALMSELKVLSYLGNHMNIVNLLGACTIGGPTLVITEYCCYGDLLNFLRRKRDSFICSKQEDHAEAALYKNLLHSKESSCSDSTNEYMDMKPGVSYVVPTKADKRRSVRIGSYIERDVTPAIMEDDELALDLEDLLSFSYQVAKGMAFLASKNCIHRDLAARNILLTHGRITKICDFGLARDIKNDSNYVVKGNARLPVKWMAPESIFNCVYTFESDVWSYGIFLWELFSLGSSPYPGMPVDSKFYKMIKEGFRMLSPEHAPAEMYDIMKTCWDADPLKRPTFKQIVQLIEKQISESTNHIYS
ASSAY: BaF3 BCR-KIT cell proliferation assay (ATPlite)
Assay type: cell-based
TEST_SETTINGS: read-out: Inhibition of Cell Proliferation IC50, BCR/BaF3 Kit
Each item that follows carries a reported IC50.

Exercise: Requested read-out: IC50. Entry: Cc1cnc2[nH]cc(C(=O)c3ccc(Nc4ccc(C)nc4)nc3F)c2c1 [Compound P-3043]
Solution: < 1 µM

Exercise: Requested read-out: IC50. Entry: COc1cncc(Nc2ccc(C(=O)c3c[nH]c4ncnc(NC5CC5)c34)c(F)n2)c1 [Compound P-4107]
Solution: < 1 µM

Exercise: Requested read-out: IC50. Entry: Cc1cnc2[nH]cc(Cc3cnc(Nc4cc(C(F)(F)F)n[nH]4)nc3)c2c1 [Compound P-3037]
Solution: > 1 µM

Exercise: Requested read-out: IC50. Entry: CCc1ccc(Nc2ccc(C(=O)c3c[nH]c4ncnc(N[C@@H](C)c5ccc(F)cc5)c34)c(F)n2)cn1 [Compound P-4097]
Solution: < 1 µM

Exercise: Requested read-out: IC50. Entry: CCc1ccc(Nc2ccc(Cc3c[nH]c4ncnc(OCCOC)c34)c(F)n2)cn1 [Compound P-4016]
Solution: < 0.1 µM

Exercise: Requested read-out: IC50. Entry: Fc1cccc(Nc2ncc(Cc3c[nH]c4ncc(Cl)cc34)cn2)c1 [Compound P-3017]
Solution: > 1 µM

====

Each item that follows carries a reported pIC50.
TGT: BCR-NTRK2 BaF3 cells (Homo sapiens)
Construct: fused on or other part: P11274 (Breakpoint cluster region protein)
Sequence (Q16620 538-807): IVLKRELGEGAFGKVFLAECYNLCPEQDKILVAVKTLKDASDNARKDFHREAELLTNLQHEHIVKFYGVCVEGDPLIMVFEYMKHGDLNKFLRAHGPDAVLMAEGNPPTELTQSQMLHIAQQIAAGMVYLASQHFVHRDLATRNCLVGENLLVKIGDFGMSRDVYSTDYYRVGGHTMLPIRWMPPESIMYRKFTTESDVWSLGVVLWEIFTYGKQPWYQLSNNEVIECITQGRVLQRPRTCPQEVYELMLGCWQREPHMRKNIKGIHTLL
ASSAY: BaF3 BCR-NTRK2 cell proliferation assay (ATPlite)
TEST_SETTINGS: read-out: Inhibition of Cell Proliferation IC50, BCR/BaF3 TrkB
pIC50: −log10 of the molar value.

Exercise: Requested read-out: pIC50. Entry: CCCNc1ncnc2[nH]cc(C(=O)c3ccc(Nc4ccc(CC)nc4)nc3F)c12 [Compound P-4122]
Solution: > 8.00

Exercise: Requested read-out: pIC50. Entry: O=C(c1ccc(Nc2ccc(C3CC3)nc2)nc1F)c1c[nH]c2ncnc(NCC(F)(F)F)c12 [Compound P-4090]
Solution: > 8.00

Exercise: Requested read-out: pIC50. Entry: COCCOc1ncnc2[nH]cc(Cc3ccc(Nc4ccc(C)nc4)nc3F)c12 [Compound P-4015]
Solution: > 6.00

Exercise: Requested read-out: pIC50. Entry: COc1ccc(Nc2ccc(C(=O)c3c[nH]c4ncnc(NC5CCC5)c34)c(F)n2)cn1 [Compound P-4076]
Solution: > 8.00

====

Each item that follows carries a reported IC50.
TGT: CYP3A4(BFC) (Homo sapiens)
Sequence (P08684 whole entry): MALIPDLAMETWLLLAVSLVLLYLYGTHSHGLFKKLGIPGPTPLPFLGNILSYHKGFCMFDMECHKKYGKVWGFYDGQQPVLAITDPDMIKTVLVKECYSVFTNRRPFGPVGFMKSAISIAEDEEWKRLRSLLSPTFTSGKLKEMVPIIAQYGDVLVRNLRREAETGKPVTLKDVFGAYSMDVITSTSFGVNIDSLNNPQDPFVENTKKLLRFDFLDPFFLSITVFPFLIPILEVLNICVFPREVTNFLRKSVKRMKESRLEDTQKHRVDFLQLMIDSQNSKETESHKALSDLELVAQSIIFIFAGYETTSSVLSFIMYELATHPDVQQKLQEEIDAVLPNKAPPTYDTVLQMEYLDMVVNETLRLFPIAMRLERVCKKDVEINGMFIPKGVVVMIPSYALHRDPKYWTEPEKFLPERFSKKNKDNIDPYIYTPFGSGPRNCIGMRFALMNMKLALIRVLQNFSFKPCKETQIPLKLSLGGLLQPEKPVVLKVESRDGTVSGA
ASSAY: CYP3A4(BFC) inhibition
Assay type: in vitro ADME
TEST_SETTINGS: CYP3A4, substrate BFC; read-out: Cyp IC50 3A4(BFC)

COMPOUND	IC50
Cc1ccc(Nc2ccc(C(=O)c3c[nH]c4ncc(Cl)cc34)c(F)n2)cn1 [Compound P-3044]	> 10 µM
COc1ccc(Nc2ccc(C(=O)c3c[nH]c4ncnc(N5CCCCC5)c34)c(F)n2)cn1 [Compound P-4069]	5 to 10 µM
COc1cncc(Nc2ccc(C(=O)c3c[nH]c4ncnc(NC5CC5)c34)c(F)n2)c1 [Compound P-4107]	> 10 µM
O=C(c1ccc(Nc2ccc(C3CC3)nc2)nc1F)c1c[nH]c2ncccc12 [Compound P-3052]	> 10 µM
CCc1ccc(Nc2ccc(C(=O)c3c[nH]c4ncc(C)cc34)c(F)n2)cn1 [Compound P-3049]	> 10 µM
CNc1ncnc2[nH]cc(C(=O)c3ccc(NC4CCCCC4)nc3Cl)c12 [Compound P-4110]	> 10 µM
O=C(c1ccc(NC2CCC(F)(F)CC2)nc1)c1c[nH]c2ncnc(NCC(F)(F)F)c12 [Compound P-4087]	> 10 µM
O=C(c1ccc(NC2CCC(F)(F)CC2)nc1Cl)c1c[nH]c2ncnc(NC3CC3)c12 [Compound P-4059]	> 10 µM

Exercise: Requested read-out: IC50. Entry: CCn1cc(Nc2ccc(Cc3c[nH]c4ncnc(C5CC5)c34)c(F)n2)cn1 [Compound P-4036]
Solution: 5 to 10 µM

Exercise: Requested read-out: IC50. Entry: Fc1nc(NC2CCC(F)(F)CC2)ccc1Cc1c[nH]c2ncnc(NCC(F)(F)F)c12 [Compound P-4128]
Solution: > 10 µM

====

As an illustration, consider measured IC50 for molecules on Fms kinase (Homo sapiens, UniProt P07333).
Sequence (P07333 20-972): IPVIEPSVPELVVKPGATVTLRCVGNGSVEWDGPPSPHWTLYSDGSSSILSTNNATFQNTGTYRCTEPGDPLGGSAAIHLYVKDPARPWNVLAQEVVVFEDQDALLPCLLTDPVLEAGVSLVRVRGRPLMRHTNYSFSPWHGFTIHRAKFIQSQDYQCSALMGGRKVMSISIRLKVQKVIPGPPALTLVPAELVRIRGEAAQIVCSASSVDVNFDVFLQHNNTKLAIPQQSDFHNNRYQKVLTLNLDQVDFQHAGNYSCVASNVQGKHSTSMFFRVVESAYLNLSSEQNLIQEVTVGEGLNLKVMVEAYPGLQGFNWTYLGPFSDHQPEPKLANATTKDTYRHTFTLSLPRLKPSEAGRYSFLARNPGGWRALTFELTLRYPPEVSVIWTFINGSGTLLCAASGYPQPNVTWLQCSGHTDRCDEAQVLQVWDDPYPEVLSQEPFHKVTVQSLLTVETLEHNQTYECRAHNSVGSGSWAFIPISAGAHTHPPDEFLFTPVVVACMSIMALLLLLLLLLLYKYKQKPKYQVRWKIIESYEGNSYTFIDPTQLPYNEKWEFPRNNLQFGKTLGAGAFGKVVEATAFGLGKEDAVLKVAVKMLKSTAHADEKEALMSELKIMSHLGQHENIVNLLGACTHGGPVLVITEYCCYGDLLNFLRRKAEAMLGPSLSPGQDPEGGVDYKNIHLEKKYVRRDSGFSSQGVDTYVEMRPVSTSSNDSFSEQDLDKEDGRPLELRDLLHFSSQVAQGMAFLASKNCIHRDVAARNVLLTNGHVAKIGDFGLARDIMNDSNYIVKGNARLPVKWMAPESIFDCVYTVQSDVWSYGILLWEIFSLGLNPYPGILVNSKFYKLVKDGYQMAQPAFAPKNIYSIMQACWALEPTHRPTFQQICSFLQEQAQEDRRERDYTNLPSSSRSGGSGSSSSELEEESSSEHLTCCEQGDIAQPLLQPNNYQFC

Worked examples follow.
MOLECULE	IC50
CNc1ncnc2[nH]cc(C(=O)c3ccc(NC4CCC(F)(F)CC4)nc3Cl)c12	< 100 nM
O=C(c1cnc(NC2CCC(F)(F)CC2)c(F)c1)c1c[nH]c2ncnc(NCC(F)(F)F)c12	< 1000 nM
COc1ccc(Nc2ncc(Cc3c[nH]c4ncc(C)cc34)cn2)cc1	< 10 nM
CCn1ccc(Nc2ncc(Cc3c[nH]c4ncc(C)cc34)cn2)n1	< 1000 nM
Cc1cnc2[nH]cc(Cc3cnc(Nc4ccc(C(F)(F)F)nc4)nc3)c2c1	< 10 nM
CNc1ncnc2[nH]cc(C(=O)c3ccc(Nc4ccc(C5CC5)nc4)nc3F)c12	< 10 nM

Exercise: Requested read-out: IC50. Entry: CC(C)Nc1ncnc2[nH]cc(C(=O)c3ccc(NC4CCCCC4)nc3Cl)c12
Solution: < 100 nM

Exercise: Requested read-out: IC50. Entry: CCCOc1ccc(Nc2ncc(Cc3c[nH]c4ncc(C)cc34)cn2)cc1
Solution: < 100 nM

====

As an illustration, consider measured IC50 for compounds on UniProt P08684.

Worked examples follow.
COc1ccc(Nc2ccc(C(=O)c3c[nH]c4ncnc(N5CCOCC5)c34)c(F)n2)cn1 > 10 µM
COCCOc1ncnc2[nH]cc(Cc3ccc(Nc4ccc(C)nc4)nc3F)c12 > 10 µM

Exercise: Requested read-out: IC50. Entry: CCNc1ncnc2[nH]cc(C(=O)c3ccc(Nc4ccc(C5CC5)nc4)nc3F)c12
Solution: > 10 µM

Exercise: Requested read-out: IC50. Entry: CC(C)(O)CNc1ncnc2[nH]cc(C(=O)c3ccc(Nc4ccc(C5CC5)nc4)nc3F)c12
Solution: > 10 µM

Exercise: Requested read-out: IC50. Entry: CCNc1ncnc2[nH]cc(C(=O)c3ccc(Nc4ccc(CC)nc4)nc3F)c12
Solution: > 10 µM

Exercise: Requested read-out: IC50. Entry: CCN1CCC(Nc2ncnc3[nH]cc(C(=O)c4ccc(Nc5ccc(OC)nc5)nc4F)c23)CC1
Solution: > 10 µM

Exercise: Requested read-out: IC50. Entry: CCOc1ncnc2[nH]cc(Cc3ccc(Nc4ccc(OC)nc4)nc3F)c12
Solution: 5 to 10 µM

Exercise: Requested read-out: IC50. Entry: COc1ccc(Nc2ccc(C(=O)c3c[nH]c4ncnc(NC(C)C)c34)c(F)n2)cn1
Solution: > 10 µM

Exercise: Requested read-out: IC50. Entry: CCc1ccc(Nc2ccc(C(=O)c3c[nH]c4ncnc(NC5CCCC5)c34)c(F)n2)cn1
Solution: > 10 µM

Exercise: Requested read-out: IC50. Entry: CNc1ncnc2[nH]cc(C(=O)c3cnc(NC4CCC(F)(F)CC4)c(F)c3)c12
Solution: > 10 µM

Exercise: Requested read-out: IC50. Entry: Cc1ccc(Nc2ccc(C(=O)c3c[nH]c4ncnc(NCC5CC5)c34)c(F)n2)cn1
Solution: > 10 µM

Exercise: Requested read-out: IC50. Entry: Cc1cnc2[nH]cc(Cc3ccc(NC4CCCCC4)nc3F)c2c1
Solution: 5 to 10 µM

Exercise: Requested read-out: IC50. Entry: CCOc1ccc(Nc2ccc(Cc3c[nH]c4ncnc(OCCOC)c34)c(F)n2)cn1
Solution: 5 to 10 µM

Exercise: Requested read-out: IC50. Entry: CCc1ccc(Nc2ccc(C(=O)c3c[nH]c4ncnc(NCC(C)(C)O)c34)c(F)n2)cn1
Solution: > 10 µM

Exercise: Requested read-out: IC50. Entry: O=C(c1ccc(NC2CCC(F)(F)CC2)nc1Cl)c1c[nH]c2ncnc(NCC(F)(F)F)c12
Solution: > 10 µM

Exercise: Requested read-out: IC50. Entry: CCc1ccc(Nc2ccc(C(=O)c3c[nH]c4ncnc(NC5CCC(F)(F)CC5)c34)c(F)n2)cn1
Solution: > 10 µM

Exercise: Requested read-out: IC50. Entry: COc1ncnc2[nH]cc(Cc3ccc(Nc4ccc(C)nc4)nc3F)c12
Solution: > 10 µM

Exercise: Requested read-out: IC50. Entry: COc1ccc(Nc2ccc(C(=O)c3c[nH]c4ncnc(NC5CCC5)c34)c(F)n2)cn1
Solution: > 10 µM

Exercise: Requested read-out: IC50. Entry: CCc1ccc(Nc2ccc(C(=O)c3c[nH]c4ncnc(NC(C)C)c34)c(F)n2)cn1
Solution: > 10 µM

Exercise: Requested read-out: IC50. Entry: Cc1cnc2[nH]cc(Cc3ccc(Nc4ccc(C5CC5)nc4)nc3F)c2c1
Solution: > 10 µM
